Tested on: SF-295
EXPERIMENT: NCI tumour cell line growth inhibition, 48 h
Activity calls are given as the source filed them. Rule as the data show it: active = GI50 up to about 1.1 µM and inactive = higher.
// allowed return values: active, inactive

Reference set, count: 2
Cc1c(C(=O)OCc2ccccc2)[n+]([O-])c2cc(Cl)c(Cl)cc2[n+]1[O-]	inactive
O=c1c(-c2ccccc2)c2oc(c1-c1ccccc1)CS(=O)(=O)CCC2	inactive

Field: outcome | Entry: Cc1nc2ccccc2c(=O)n1/N=C(\N=N\c1ccccc1)c1ccccc1Cl
active

Field: outcome | Entry: CCC(=O)OCN1C(=O)C=CC1=O
inactive

Field: outcome | Entry: c1ccc2c(c1)[nH]c1c2nc2ccccn21
inactive

Field: outcome | Entry: O=[PH](O)c1cccnc1
inactive
